Every entry's value here was drawn from paper doi:10.1101/2024.06.17.599304v1.

# target.or.system: hGluN1/hGluN2B (Homo sapiens, UniProt Q05586+Q13224)
# Sequence (Q13224 27-1484, other chains not shown): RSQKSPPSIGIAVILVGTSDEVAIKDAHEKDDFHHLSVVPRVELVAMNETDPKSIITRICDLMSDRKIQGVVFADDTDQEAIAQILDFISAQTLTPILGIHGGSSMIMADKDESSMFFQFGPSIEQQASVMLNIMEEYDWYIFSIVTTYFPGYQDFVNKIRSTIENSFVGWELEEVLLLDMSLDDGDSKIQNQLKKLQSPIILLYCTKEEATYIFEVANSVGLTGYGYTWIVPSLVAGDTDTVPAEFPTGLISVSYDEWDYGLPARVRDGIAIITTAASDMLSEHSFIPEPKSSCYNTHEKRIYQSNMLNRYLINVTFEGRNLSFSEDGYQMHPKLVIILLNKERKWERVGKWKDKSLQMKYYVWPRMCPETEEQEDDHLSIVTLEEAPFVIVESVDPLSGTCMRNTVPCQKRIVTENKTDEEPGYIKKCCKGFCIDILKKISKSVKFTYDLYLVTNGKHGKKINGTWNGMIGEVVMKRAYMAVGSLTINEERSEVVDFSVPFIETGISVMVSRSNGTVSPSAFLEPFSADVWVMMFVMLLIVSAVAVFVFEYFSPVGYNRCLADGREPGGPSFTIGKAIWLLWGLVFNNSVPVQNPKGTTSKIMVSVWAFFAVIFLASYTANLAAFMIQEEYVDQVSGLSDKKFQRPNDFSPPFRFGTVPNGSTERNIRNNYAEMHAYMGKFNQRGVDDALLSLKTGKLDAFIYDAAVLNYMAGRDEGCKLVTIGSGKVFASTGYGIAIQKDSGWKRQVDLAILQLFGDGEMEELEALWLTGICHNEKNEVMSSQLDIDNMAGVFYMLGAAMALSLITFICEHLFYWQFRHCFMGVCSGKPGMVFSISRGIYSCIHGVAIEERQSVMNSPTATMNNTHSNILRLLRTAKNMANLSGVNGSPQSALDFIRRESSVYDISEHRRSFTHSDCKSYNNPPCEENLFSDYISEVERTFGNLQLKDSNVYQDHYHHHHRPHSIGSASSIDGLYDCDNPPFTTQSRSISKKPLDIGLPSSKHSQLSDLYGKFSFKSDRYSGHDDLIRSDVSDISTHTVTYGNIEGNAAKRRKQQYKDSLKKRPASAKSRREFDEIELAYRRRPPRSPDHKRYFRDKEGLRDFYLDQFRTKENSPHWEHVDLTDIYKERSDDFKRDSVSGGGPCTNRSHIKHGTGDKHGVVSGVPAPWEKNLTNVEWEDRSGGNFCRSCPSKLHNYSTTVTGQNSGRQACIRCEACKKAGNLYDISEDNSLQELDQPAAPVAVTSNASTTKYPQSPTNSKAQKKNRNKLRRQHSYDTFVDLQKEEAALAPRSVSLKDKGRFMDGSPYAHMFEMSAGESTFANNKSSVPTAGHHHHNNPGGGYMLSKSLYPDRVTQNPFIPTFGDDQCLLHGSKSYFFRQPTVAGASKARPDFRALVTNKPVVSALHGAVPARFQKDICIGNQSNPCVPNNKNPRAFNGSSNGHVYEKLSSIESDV
# assay.overview: cell-based
# Set-up: gene GRIN1; cDNA vectors for human GluN1-1a and GluN2B co-transfected with GFP in HEK293 cells; diheteromeric receptor; whole-cell voltage-clamp electrophysiology, inhibition of steady-state L-glutamate-induced currents at -60 mV
# run.conditions: HEK293; -60 mV, 1 mM L-glutamate
The label depends only on inhibition at 3 µM: y if it is at least 50%, n if it is smaller.

Recorded results for 3 compounds are shown here.
{"structure.smiles.string": "c1ccc2c(c1)CCc1ccccc1C2N1CCOCC1", "qualitative.label": "n"}
{"structure.smiles.string": "CC(C)NC1c2ccccc2C=Cc2ccccc21", "qualitative.label": "y"}
{"structure.smiles.string": "C1=Cc2ccccc2C(N2CCCCC2)c2ccccc21", "qualitative.label": "y"}

**Query** Could you verify whether the entry CCCCNC1c2ccccc2CCc2ccccc21 shows inhibition at 3 µM of no less than 50%?
**Result** y

**Query** Could you verify whether the entry C1=Cc2ccccc2C(N2CCOCC2)c2ccccc21 shows inhibition at 3 µM of no less than 50%?
**Result** y

* * *

# target.or.system: hGluN1/hGluN2A (Homo sapiens, UniProt Q05586+Q12879)
# Sequence (Q12879 23-1464, other chains not shown): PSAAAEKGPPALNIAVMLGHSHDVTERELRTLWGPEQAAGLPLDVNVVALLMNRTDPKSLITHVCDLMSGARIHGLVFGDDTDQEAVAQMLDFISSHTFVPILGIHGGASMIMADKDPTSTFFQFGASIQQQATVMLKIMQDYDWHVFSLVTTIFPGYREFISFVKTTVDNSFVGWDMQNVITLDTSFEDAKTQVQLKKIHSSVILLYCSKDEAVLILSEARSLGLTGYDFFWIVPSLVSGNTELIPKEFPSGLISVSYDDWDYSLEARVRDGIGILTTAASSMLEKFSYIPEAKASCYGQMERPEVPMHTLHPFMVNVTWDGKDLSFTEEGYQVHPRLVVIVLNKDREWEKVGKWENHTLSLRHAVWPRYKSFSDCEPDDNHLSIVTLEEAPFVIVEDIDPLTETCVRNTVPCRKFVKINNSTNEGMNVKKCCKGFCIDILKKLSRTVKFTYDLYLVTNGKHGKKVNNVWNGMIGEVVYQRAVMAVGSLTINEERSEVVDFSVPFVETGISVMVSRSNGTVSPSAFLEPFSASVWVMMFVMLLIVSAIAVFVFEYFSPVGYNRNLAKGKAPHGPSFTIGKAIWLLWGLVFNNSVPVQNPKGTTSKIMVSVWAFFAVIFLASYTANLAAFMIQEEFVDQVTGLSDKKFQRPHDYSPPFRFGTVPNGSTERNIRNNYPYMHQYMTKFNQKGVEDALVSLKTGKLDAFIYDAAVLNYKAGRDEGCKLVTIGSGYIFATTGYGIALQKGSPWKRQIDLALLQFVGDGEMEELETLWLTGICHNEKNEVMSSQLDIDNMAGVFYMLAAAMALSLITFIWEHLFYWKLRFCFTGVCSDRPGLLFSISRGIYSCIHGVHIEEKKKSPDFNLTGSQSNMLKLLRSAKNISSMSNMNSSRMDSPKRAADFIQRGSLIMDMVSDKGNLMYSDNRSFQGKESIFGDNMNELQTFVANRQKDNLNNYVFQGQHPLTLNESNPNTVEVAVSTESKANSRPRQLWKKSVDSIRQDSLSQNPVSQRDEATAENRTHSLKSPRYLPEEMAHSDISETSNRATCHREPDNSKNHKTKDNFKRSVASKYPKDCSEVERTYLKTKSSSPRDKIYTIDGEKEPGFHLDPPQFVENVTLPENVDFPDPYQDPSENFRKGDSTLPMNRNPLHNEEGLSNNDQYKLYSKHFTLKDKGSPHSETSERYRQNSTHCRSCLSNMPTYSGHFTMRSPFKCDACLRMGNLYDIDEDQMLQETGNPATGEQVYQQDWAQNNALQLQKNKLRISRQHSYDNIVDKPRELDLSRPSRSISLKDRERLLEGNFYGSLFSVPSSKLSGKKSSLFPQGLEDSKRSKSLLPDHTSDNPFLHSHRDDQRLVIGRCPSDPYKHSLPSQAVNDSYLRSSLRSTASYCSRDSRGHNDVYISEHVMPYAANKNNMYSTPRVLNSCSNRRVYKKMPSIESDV
# assay.overview: cell-based
# Design: gene GRIN1; cDNA vectors for human GluN1-1a and GluN2A co-transfected with GFP in HEK293 cells; diheteromeric receptor; whole-cell voltage-clamp electrophysiology, inhibition of steady-state L-glutamate-induced currents at -60 mV
# run.conditions: HEK293; -60 mV, 1 mM L-glutamate
measured.attribute: inhibition at 3 µM (%)
Answers are plain numbers, in %.

Consider the worked cases shown below.
{"structure.smiles.string": "C1=Cc2ccccc2C(N2CCOCC2)c2ccccc21", "target.or.system": "hGluN1/hGluN2A (Homo sapiens, UniProt Q05586+Q12879)", "result.unit": "%", "inhibition at 3 µM": 31.9}
{"structure.smiles.string": "C1=Cc2ccccc2C(N2CCCCC2)c2ccccc21", "target.or.system": "hGluN1/hGluN2A (Homo sapiens, UniProt Q05586+Q12879)", "result.unit": "%", "inhibition at 3 µM": 29.9}
{"structure.smiles.string": "OCCNC1c2ccccc2C=Cc2ccccc21", "target.or.system": "hGluN1/hGluN2A (Homo sapiens, UniProt Q05586+Q12879)", "result.unit": "%", "inhibition at 3 µM": 38.2}

I'm hoping you can list inhibition at 3 µM for every molecule here, please.
1. OCCNC1c2ccccc2CCc2ccccc21
2. c1ccc2c(c1)CCc1ccccc1C2N1CCOCC1

**Result**
48
6.78

**Query** What measured inhibition at 3 µM is associated with C1=Cc2ccccc2C(N2CCCC2)c2ccccc21 on hGluN1/hGluN2A (Homo sapiens, UniProt Q05586+Q12879)?
**Result** 48.6

* * *

Task for the reader: assign each of the following compounds its reported inhibition at 3 µM.
# target.or.system: hGluN1/hGluN2B (Homo sapiens, UniProt Q05586+Q13224)
# assay.overview: cell-based
# Set-up: gene GRIN1; cDNA vectors for human GluN1-1a and GluN2B co-transfected with GFP in HEK293 cells; diheteromeric receptor; whole-cell voltage-clamp electrophysiology, inhibition of steady-state L-glutamate-induced currents at -60 mV
# run.conditions: HEK293; -60 mV, 1 mM L-glutamate
# Protocol: First, we determined the relative inhibition of all novel compounds on the two major diheteromeric NMDA receptor subtypes in the adult cortex – GluN1/GluN2A and GluN1/GluN2B [1] – using a clinically relevant concentration (3 µM). […] Concentration-response curves were fitted using Equation 1; the resulting IC50 values, Hill coefficients, and the numbers of cells measured for each membrane potential are shown in Table 3.

{"structure.smiles.string": "CCN(CC)C1c2ccccc2CCc2ccccc21", "target.or.system": "hGluN1/hGluN2B (Homo sapiens, UniProt Q05586+Q13224)", "inhibition at 3 µM": "75%"}
{"structure.smiles.string": "c1ccc2c(c1)CCc1ccccc1C2NC1CC1", "target.or.system": "hGluN1/hGluN2B (Homo sapiens, UniProt Q05586+Q13224)", "inhibition at 3 µM": "53.6%"}
{"structure.smiles.string": "C1=Cc2ccccc2C(NC2CC2)c2ccccc21", "target.or.system": "hGluN1/hGluN2B (Homo sapiens, UniProt Q05586+Q13224)", "inhibition at 3 µM": "57.2%"}

I'm hoping you can list inhibition at 3 µM for every compound here, please.
1. CNC1c2ccccc2C=Cc2ccccc21
2. COCCNC1c2ccccc2CCc2ccccc21

**Result**
68.9%
66.6%
